Where these numbers come from: patent US10172858B2

systemUnderTest: PI3K γ (Homo sapiens (Human), UniProt P48736)
Sequence (P48736 whole entry, species assumed): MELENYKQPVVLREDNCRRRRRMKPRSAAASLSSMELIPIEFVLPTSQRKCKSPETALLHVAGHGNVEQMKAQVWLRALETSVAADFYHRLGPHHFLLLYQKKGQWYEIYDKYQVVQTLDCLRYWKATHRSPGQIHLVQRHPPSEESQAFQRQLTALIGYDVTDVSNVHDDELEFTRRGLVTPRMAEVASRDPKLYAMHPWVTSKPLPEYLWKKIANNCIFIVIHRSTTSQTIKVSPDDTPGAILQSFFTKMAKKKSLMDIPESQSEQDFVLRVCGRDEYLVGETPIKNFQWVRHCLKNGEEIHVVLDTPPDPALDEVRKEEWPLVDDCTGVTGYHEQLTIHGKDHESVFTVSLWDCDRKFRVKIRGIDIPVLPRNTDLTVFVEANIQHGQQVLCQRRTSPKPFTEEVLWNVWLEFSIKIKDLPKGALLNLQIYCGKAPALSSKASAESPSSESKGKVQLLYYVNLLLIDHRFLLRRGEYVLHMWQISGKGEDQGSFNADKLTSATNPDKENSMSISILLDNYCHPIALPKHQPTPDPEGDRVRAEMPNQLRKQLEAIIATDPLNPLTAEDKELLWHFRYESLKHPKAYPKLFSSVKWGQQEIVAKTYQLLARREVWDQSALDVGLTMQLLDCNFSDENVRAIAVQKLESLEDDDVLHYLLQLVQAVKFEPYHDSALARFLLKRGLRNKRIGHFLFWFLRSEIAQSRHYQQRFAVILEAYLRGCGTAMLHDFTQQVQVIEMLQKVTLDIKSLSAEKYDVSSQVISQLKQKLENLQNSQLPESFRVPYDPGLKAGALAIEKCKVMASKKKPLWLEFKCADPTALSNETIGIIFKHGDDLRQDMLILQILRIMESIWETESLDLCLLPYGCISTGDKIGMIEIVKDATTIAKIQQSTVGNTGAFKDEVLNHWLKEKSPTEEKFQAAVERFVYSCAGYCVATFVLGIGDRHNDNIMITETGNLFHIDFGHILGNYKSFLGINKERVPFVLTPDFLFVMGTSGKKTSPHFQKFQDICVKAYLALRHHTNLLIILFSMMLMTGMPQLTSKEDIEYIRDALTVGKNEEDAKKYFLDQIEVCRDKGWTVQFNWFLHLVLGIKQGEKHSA
methodDescription: PI3K γ kinase assay
Format: biochemical
assayContext: Table 2
# IC50 values compiled below
endpointName: IC50

| compound | endpointName | observedMeasurement |
| --- | --- | --- |
| COc1ccc(Cl)c2cc(-c3nn(C4CCOCC4)c4ncnc(N)c34)[nH]c12 | IC50 | > 0.5 µM |
| CC(C)n1nc(-c2cc3cc(O)c(Cl)cc3[nH]2)c2c(N)ncnc21 | IC50 | > 0.5 µM |
| Nc1ncnc2c1c(-c1cc3cc(O)ccc3[nH]1)nn2C1CC(O)C1 (centres unmarked) | IC50 | > 0.5 µM |
| CC(C)N1CCC(n2nc(-c3cc4cc(O)cc(Cl)c4[nH]3)c3c(N)ncnc32)CC1 | IC50 | > 0.5 µM |
| CC(C)N1CCC(n2nc(-c3cc4cc(O)ccc4[nH]3)c3c(N)ncnc32)CC1 | IC50 | > 0.5 µM |
| Nc1ncnc2c1c(-c1cc3cccc(O)c3[nH]1)nn2C1CCN(C(=O)C2CC2)CC1 | IC50 | < 0.05 µM |
| Nc1ncnc2c1c(-c1cc3cc(O)cc(Cl)c3[nH]1)nn2C1CCOCC1 | IC50 | < 0.05 µM |
| Nc1ncnc2c1c(-c1cc3cccc(O)c3[nH]1)nn2C1CCCC1 | IC50 | < 0.1 µM |
| CNC(=O)Cn1nc(-c2cc3cc(O)ccc3[nH]2)c2c(N)ncnc21 | IC50 | > 0.5 µM |
| Nc1ncnc2c1c(-c1cc3cc(O)ccc3[nH]1)nn2C1CC(=O)C1 | IC50 | > 0.5 µM |
| Nc1ncnc2c1c(-c1cc3cc(O)ccc3[nH]1)nn2C1CCC(N2CCOCC2)CC1 (centres unmarked) | IC50 | > 0.5 µM |
| CC(C)n1nc(-c2cc3cccc(Cl)c3[nH]2)c2c(N)ncnc21 | IC50 | < 0.5 µM |
| CN1CCN(C2CC(n3nc(-c4cc5cc(O)ccc5[nH]4)c4c(N)ncnc43)C2)CC1 (centres unmarked) | IC50 | > 0.5 µM |
| CC(=O)N1CCC(n2nc(-c3cc4cc(O)cc(Cl)c4[nH]3)c3c(N)ncnc32)CC1 | IC50 | < 0.1 µM |
| COc1ccc2cc(-c3nn(C4CCOCC4)c4ncnc(N)c34)[nH]c2c1 | IC50 | > 0.5 µM |
| COc1cccc2cc(-c3nn(C4CCN(C(=O)C5CC5)CC4)c4ncnc(N)c34)[nH]c12 | IC50 | > 0.5 µM |
| CC(=O)N1CCC(n2nc(-c3cc4c(Cl)ccc(O)c4[nH]3)c3c(N)ncnc32)CC1 | IC50 | > 0.5 µM |
| CC(C)N1CCC(n2nc(-c3cc4c(Cl)ccc(O)c4[nH]3)c3c(N)ncnc32)CC1 | IC50 | > 0.5 µM |
| Nc1ncnc2c1c(-c1cc3cc(O)ccc3[nH]1)nn2CCN1CCOCC1 | IC50 | > 0.5 µM |
| Nc1ncnc2c1c(-c1cc3cc(O)ccc3[nH]1)nn2CC(=O)N1CCOCC1 | IC50 | > 0.5 µM |
| Nc1ncnc2c1c(-c1cc3ccc(O)cc3[nH]1)nn2C1CCOCC1 | IC50 | < 0.1 µM |
| Nc1ncnc2c1c(-c1cc3cc(O)ccc3[nH]1)nn2C1CC(N2CCOCC2)C1 (centres unmarked) | IC50 | < 0.5 µM |
| COCCn1nc(-c2cc3cc(O)ccc3[nH]2)c2c(N)ncnc21 | IC50 | > 0.5 µM |
| CC(C)N1CCC(n2nc(-c3cc4cccc(O)c4[nH]3)c3c(N)ncnc32)CC1 | IC50 | < 0.5 µM |
| Nc1ncnc2c1c(-c1cc3c(Cl)cccc3[nH]1)nn2C1CCOCC1 | IC50 | > 0.5 µM |
| Nc1ncnc2c1c(-c1cc3cccc(Cl)c3[nH]1)nn2C1CCOCC1 | IC50 | < 0.5 µM |
| COc1cc(Cl)c2[nH]c(-c3nn(C4CCOCC4)c4ncnc(N)c34)cc2c1 | IC50 | > 0.5 µM |
| Nc1ncnc2c1c(-c1cc3cccc(O)c3[nH]1)nn2C1CCOCC1 | IC50 | > 0.5 µM |
| CC(C)n1nc(-c2cc3c(O)cccc3[nH]2)c2c(N)ncnc21 | IC50 | < 0.5 µM |
